All values here come from ChEMBL document CHEMBL1150362.

Measured Activity by item
# system: Mu-type opioid receptor (Homo sapiens, UniProt P35372)
# Sequence (P35372 whole entry): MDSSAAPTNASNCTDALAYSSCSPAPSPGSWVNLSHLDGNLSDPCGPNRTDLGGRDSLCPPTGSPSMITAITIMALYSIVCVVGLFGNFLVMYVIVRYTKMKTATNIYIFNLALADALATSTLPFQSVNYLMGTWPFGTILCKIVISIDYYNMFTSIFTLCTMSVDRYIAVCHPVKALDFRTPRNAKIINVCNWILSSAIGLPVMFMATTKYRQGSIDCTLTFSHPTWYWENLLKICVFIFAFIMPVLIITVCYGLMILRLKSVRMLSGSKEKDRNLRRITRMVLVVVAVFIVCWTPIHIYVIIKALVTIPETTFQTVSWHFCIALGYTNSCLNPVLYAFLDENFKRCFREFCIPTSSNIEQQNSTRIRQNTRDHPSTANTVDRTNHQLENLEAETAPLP
# test: Agonist activity at mu opioid receptor in human SHSY5Y cells assessed as inhibition of forskolin-stimulated cAMP production at 100 nM
# Assay type: functional, cell-based
# Parameters: scale not given: the % may be the effect or the level left
# test.parameters: SH-SY5Y
Where a SMILES comes first, the peptide text is derived from it. [ ]: non-standard residue; d: D form. The star is where a group is joined. ξ: configuration not given here. X1 = NC(=O)[C@H]1O[C@@H](N*)[C@H](O)[C@@H](O)[C@@H]1O; ξGly(nC16H33) = CCCCCCCCCCCCCCCCC(N)C(=O)O; ξAoc(2) = CCCCCCC(N)C(=O)O
# unit: % | format: bare number

compound	recorded.value
CCCCCCCCCCCCCCCCC(N)C(=O)N[C@@H](Cc1ccc(O)cc1)C(=O)N1CCC[C@H]1C(=O)N[C@@H](Cc1c[nH]c2ccccc12)C(=O)N[C@@H](Cc1ccccc1)C(N)=O (some centres not stated) (H-[ξGly(nC16H33)]YPWF-NH2)	48.4

Now examine the next entry.
Summary for this compound, CCCCCCC(N)C(=O)N[C@@H](Cc1ccc(O)cc1)C(=O)N1CCC[C@H]1C(=O)N[C@@H](Cc1c[nH]c2ccccc12)C(=O)N[C@@H](Cc1ccccc1)C(=O)N[C@@H]1O[C@H](C(N)=O)[C@@H](O)[C@H](O)[C@H]1O (some centres not stated) (H-[ξAoc(2)]YPWF-X1) : Activity is 36.2

----------
# test: Metabolic stability assessed as half life in human Caco-2 cell homogenate
# Assay type: ADME, Colon
# test.parameters: Caco-2 cell homogenate
*1 amine or outer side, *2 acyl side, *3 side chain or, on linkers, in order; H or OH if unused. Where a SMILES comes first, the peptide text is derived from it. [ ]: non-standard residue; d: D form. The star is where a group is joined. ξ: configuration not given here. NH(β-D-Glc) = OC[C@H]1O[C@@H](N*)[C@H](O)[C@@H](O)[C@@H]1O; X1 = NC(=O)[C@H]1O[C@@H](N*)[C@H](O)[C@@H](O)[C@@H]1O; Suc = O=C(CCC(=O)[*:2])[*:1]; ξAoc(2) = CCCCCCC(N)C(=O)O
measurement.kind: half-life (min)
# unit: min | format: bare number

molecule	recorded.value
CCCCCCC(N)C(=O)N[C@@H](Cc1ccc(O)cc1)C(=O)N1CCC[C@H]1C(=O)N[C@@H](Cc1c[nH]c2ccccc12)C(=O)N[C@@H](Cc1ccccc1)C(=O)N[C@@H]1O[C@H](C(N)=O)[C@@H](O)[C@H](O)[C@H]1O (stereo not given in full) (H-[ξAoc(2)]YPWF-X1)	75
CCCCCCC(N)C(=O)N[C@@H](Cc1ccc(O)cc1)C(=O)N1CCC[C@H]1C(=O)N[C@@H](Cc1c[nH]c2ccccc12)C(=O)N[C@@H](Cc1ccccc1)C(N)=O (stereo not given in full)	23.2
CCCCCCC(NC(=O)[C@H](Cc1ccccc1)NC(=O)[C@H](Cc1c[nH]c2ccccc12)NC(=O)[C@@H]1CCCN1C(=O)[C@H](Cc1ccc(O)cc1)NC(=O)CCC(=O)N[C@@H]1O[C@H](CO)[C@@H](O)[C@H](O)[C@H]1O)C(N)=O (stereo partly drawn) ({NH(β-D-Glc)-Suc}-YPWF[ξAoc(2)]-NH2)	33

Summary for this molecule, NC(=O)[C@H](Cc1ccccc1)NC(=O)[C@H](Cc1c[nH]c2ccccc12)NC(=O)[C@@H]1CCCN1C(=O)[C@H](Cc1ccc(O)cc1)NC(=O)CCC(=O)N[C@@H]1O[C@H](CO)[C@@H](O)[C@H](O)[C@H]1O : half-life is 38

Summary for this molecule, CCCCCC[C@H](N)C(=O)N[C@@H](Cc1ccc(O)cc1)C(=O)N1CCC[C@H]1C(=O)N[C@@H](Cc1c[nH]c2ccccc12)C(=O)N[C@@H](Cc1ccccc1)C(N)=O : half-life is 23.8

----------
# system: Delta-type opioid receptor (Rattus norvegicus, UniProt P33533)
# Sequence (P33533 whole entry): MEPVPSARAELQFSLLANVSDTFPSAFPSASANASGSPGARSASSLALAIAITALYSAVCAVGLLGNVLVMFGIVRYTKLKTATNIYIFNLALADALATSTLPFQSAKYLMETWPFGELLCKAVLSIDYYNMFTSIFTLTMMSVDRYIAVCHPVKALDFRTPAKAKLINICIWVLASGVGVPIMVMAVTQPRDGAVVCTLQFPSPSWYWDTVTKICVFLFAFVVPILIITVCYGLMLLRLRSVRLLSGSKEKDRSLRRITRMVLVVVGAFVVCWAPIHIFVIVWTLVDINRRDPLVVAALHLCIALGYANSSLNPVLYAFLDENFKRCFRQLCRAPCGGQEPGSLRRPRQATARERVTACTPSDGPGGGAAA
# test: Displacement of […] from delta opioid receptor in rat brain membrane
Where a SMILES comes first, the peptide text is derived from it. [ ]: non-standard residue; d: D form. ξ: configuration not given here. ξGly(decyl) = CCCCCCCCCCC(N)C(=O)O
Measured Ki by item

Some compounds with recorded Ki:
compound	system	Ki
CCCCCCC(N)C(=O)N[C@@H](Cc1ccc(O)cc1)C(=O)N1CCC[C@H]1C(=O)N[C@@H](Cc1c[nH]c2ccccc12)C(=O)N[C@@H](Cc1ccccc1)C(N)=O (some centres undefined)	Delta-type opioid receptor (Rattus norvegicus, UniProt P33533)	1760 nM
NC(=O)[C@H](Cc1ccccc1)NC(=O)[C@H](Cc1c[nH]c2ccccc12)NC(=O)[C@@H]1CCCN1C(=O)[C@H](Cc1ccc(O)cc1)NC(=O)CCC(=O)N[C@@H]1O[C@H](CO)[C@@H](O)[C@H](O)[C@H]1O	Delta-type opioid receptor (Rattus norvegicus, UniProt P33533)	6320 nM
CCCCCCCCCCC(N)C(=O)N[C@@H](Cc1ccc(O)cc1)C(=O)N1CCC[C@H]1C(=O)N[C@@H](Cc1c[nH]c2ccccc12)C(=O)N[C@@H](Cc1ccccc1)C(N)=O (some centres undefined) (H-[ξGly(decyl)]YPWF-NH2)	Delta-type opioid receptor (Rattus norvegicus, UniProt P33533)	836 nM

Summary for this compound, Cc1cc(O)cc(C)c1C[C@H](N)C(=O)N1CCC[C@H]1C(=O)N[C@@H](Cc1c[nH]c2ccccc12)C(=O)N[C@@H](Cc1ccccc1)C(N)=O (stereo in doubt; 13) : Ki is 5 nM
